Entry source: ChEMBL document CHEMBL2177071

biological target: Delta-type opioid receptor (Rattus norvegicus); assay: Displacement of [3H][Ile5,6]deltorphin 2 from delta opioid receptor in Wistar rat brain membranes
Sequence (P33533 whole entry): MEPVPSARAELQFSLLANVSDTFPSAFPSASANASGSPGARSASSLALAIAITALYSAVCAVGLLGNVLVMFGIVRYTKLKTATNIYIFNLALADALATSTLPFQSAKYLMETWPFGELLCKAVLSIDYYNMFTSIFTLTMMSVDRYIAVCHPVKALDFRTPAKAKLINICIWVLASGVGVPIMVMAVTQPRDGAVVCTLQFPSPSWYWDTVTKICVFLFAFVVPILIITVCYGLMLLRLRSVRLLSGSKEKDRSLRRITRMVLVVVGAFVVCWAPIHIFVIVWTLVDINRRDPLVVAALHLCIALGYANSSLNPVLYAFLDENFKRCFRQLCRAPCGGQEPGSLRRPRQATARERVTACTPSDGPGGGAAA
Collected Ki values appear next to each entry.
measuredAttribute: Ki

| molecularString | targetSystem | measuredAttribute | resultValue |
| --- | --- | --- | --- |
| NC(=O)[C@H](Cc1ccccc1)NC(=O)[C@H](Cc1ccccc1)NC(=O)[C@@H]1C[C@@H](O)CN1C(=O)[C@@H](N)Cc1ccc(O)cc1 | Delta-type opioid receptor (Rattus norvegicus) | Ki | > 10 µM |
| NC(=O)[C@H](Cc1ccccc1)NC(=O)[C@H](Cc1ccccc1)NC(=O)C[C@@H]1CCCN1C(=O)[C@@H](N)Cc1ccc(O)cc1 | Delta-type opioid receptor (Rattus norvegicus) | Ki | > 10 µM |
| NC(=O)[C@H](Cc1ccccc1)NC(=O)[C@H](Cc1ccccc1)NC(=O)[C@H]1CC=CC[C@H]1NC(=O)[C@@H](N)Cc1ccc(O)cc1 | Delta-type opioid receptor (Rattus norvegicus) | Ki | 1.03 µM |

* * *

experiment: Half life in Wistar rat brain homogenate; assay type: ADME, tissue-based
measuredAttribute: half-life (min)

| compound | unitsSymbol | boundType | resultValue |
| --- | --- | --- | --- |
| NC(=O)[C@H](Cc1ccccc1)NC(=O)[C@H](Cc1ccccc1)NC(=O)[C@@H]1CCCN1C(=O)[C@@H](N)Cc1ccc(O)cc1 [ENDOMORPHIN 2] | min | = | 5.8 |
| NC(=O)[C@H](Cc1ccccc1)NC(=O)[C@H](Cc1ccccc1)NC(=O)[C@@H]1C[C@@H](O)CN1C(=O)[C@@H](N)Cc1ccc(O)cc1 | min | = | 17 |
| NC(=O)[C@H](Cc1ccccc1)NC(=O)[C@H](Cc1ccccc1)NC(=O)[C@H]1CC=C[C@H]1NC(=O)[C@@H](N)Cc1ccc(O)cc1 | min | > | 1200 |
| NC(=O)[C@H](Cc1ccccc1)NC(=O)[C@H](Cc1ccccc1)NC(=O)C[C@@H]1CCCN1C(=O)[C@@H](N)Cc1ccc(O)cc1 | min | = | 34 |
| NC(=O)[C@H](Cc1ccccc1)NC(=O)[C@H](Cc1ccccc1)NC(=O)[C@H]1CC=CC[C@H]1NC(=O)[C@@H](N)Cc1ccc(O)cc1 | min | > | 1200 |

* * *

Target or system Mu-type opioid receptor (Rattus norvegicus): recorded pKi listed per item.
pKi: −log10 of the molar value.

| molecularString | pKi |
| --- | --- |
| NC(=O)[C@H](Cc1ccccc1)NC(=O)[C@H](Cc1ccccc1)NC(=O)[C@@H]1C[C@@H](O)CN1C(=O)[C@@H](N)Cc1ccc(O)cc1 | 7.36 |
| NC(=O)[C@H](Cc1ccccc1)NC(=O)[C@H](Cc1ccccc1)NC(=O)C[C@@H]1CCCN1C(=O)[C@@H](N)Cc1ccc(O)cc1 | 7.57 |

* * *

target: Delta-type opioid receptor (Rattus norvegicus); test: Displacement of [3H][Ile5,6]deltorphin 2 from delta opioid receptor in Wistar rat brain membranes

| molecularString | Ki |
| --- | --- |
| NC(=O)[C@H](Cc1ccccc1)NC(=O)[C@H](Cc1ccccc1)NC(=O)[C@@H]1CC=CC[C@@H]1NC(=O)[C@@H](N)Cc1ccc(O)cc1 | > 10 µM |
| NC(=O)[C@H](Cc1ccccc1)NC(=O)[C@H](Cc1ccccc1)NC(=O)[C@H]1CC=C[C@H]1NC(=O)[C@@H](N)Cc1ccc(O)cc1 | 9.93 µM |
| NC(=O)[C@H](Cc1ccccc1)NC(=O)[C@H](Cc1ccccc1)NC(=O)[C@@H]1CC=C[C@@H]1NC(=O)[C@@H](N)Cc1ccc(O)cc1 | > 10 µM |
